Tested on: CMPD-I-sensitive, K^+ channel binding site
Assay notes: [^3 H]CMPD-I ligand binding to intact RINm5F cells
Set-up: species or system rat
Measurement parameters: determined by saturation analysis, read-out: KD
Property label: Kd (nM)

Compound	Unit label	Result value
[3H]c1cc([3H])c(NC(=C[N+](=O)[O-])NC(C)C(C)(C)C)c(OCC)c1 (single isomer, unassigned) [[^3 H]CMPD-I]	nM	2

Source listed as patent US5328830A.
